The measurements presented in this section are drawn from patent US8685974B2.

So I've got a bunch of molecules here, and I need their log p values.
ASSAY_SUMMARY: logP by HPLC on reversed phase columns, method [a] (pH 2.3)
Format: physicochemical
TEST_PARAMETERS: method [a]: pH 2.3, 0.1% phosphoric acid and acetonitrile as eluent; main isomer

Take a look at these entries with their results.
| MOLECULE | VALUE_MEASURED |
| --- | --- |
| CC(C)Cn1cc(-c2cc(N)ncn2)c(-c2ccc(Cl)s2)n1 | 1.97^[a] |
| CC(C)n1nc(-c2ccc(Cl)s2)c(-c2ccncc2)c1C1CC1 | 2.44^[a] |

Turning to the following molecule.
Exercise: # log p lookup, item CCC(C)n1nc(-c2ccc(Cl)s2)c(-c2ccncc2)c1C1CC1 (stereo not drawn)
Solution: 2.75^[a]
